System: H1299 p53 Y220C
Test: Cell Proliferation Assay (CellTiter-Glo, CTG), H1299 p53 Y220C (NClH1299-inducible p53 Y220C)
Type: cell-based
Settings: Homo sapiens, NCI-H1299, 120 h, CellTiter-Glo, H1299 p53 Y220C, 5 days
pIC50: −log10 of the molar value. Structures can show the parent of a compound that is named as a salt.
pIC50 listing for selected compounds.

Known results for compounds:
COc1cc(S(C)(=O)=O)ccc1NCC#Cc1nc2c(NC3CCN(C)CC3)cc(O)cn2c1CC(F)(F)F [Example 27, TFA salt]
< 5.52
CNC(=O)c1ccc(OC)c(NCC#Cc2nc3c(N[C@@H]4CCN(C)C[C@@H]4F)cccn3c2CC(F)(F)F)n1 [Example 213]
> 6.12
COc1cc(S(=O)(=O)C2CC2)ccc1NCC#Cc1nc2c(N[C@@H]3CCN(C)C[C@@H]3F)cccn2c1CC(F)(F)F [Example 67]
> 6.12
CNC(=O)c1cnc(NCC#Cc2nc3c(N[C@@H]4CCN(C)C[C@@H]4F)cccn3c2SC(F)(F)F)c(OC)c1 [Example 136]
< 5.52
CNC(=O)c1ccc(OC)c(NCC#Cc2cc3c(N[C@@H]4CCN(C)C[C@@H]4F)nccn3c2SC(F)(F)F)c1 [Example 156]
> 6.12
CNC(=O)c1ccc(NCC#Cc2nc3c(N[C@@H]4CCNC(=O)C4)cccn3c2SC(F)(F)F)c(OC)c1 [Example 175]
< 5.52
CNC(=O)c1ccc(OC)c(NCC#Cc2nc3c(N[C@@H]4C[C@H]5CC[C@H](N5)[C@@H]4F)cccn3c2SC(F)(F)F)c1 [Example 202]
> 6.12
CNC(=O)c1ccc(NCC#Cc2nc3c(N[C@H]4CCc5ncnn5C4)cccn3c2SC(F)(F)F)c(OC)c1 (stereo in doubt) [Example 189]
< 5.52
CNC(=O)c1ccc(OC)c(NCC#Cc2cc3c(N[C@@H]4CNC[C@@H]4F)nccn3c2SC(F)(F)F)c1 [Example 209]
5.82 to 6.12
COc1cc(C(=O)NC(C)C)ccc1NCC#Cc1nc2c(N[C@@H]3CCN(C)C[C@@H]3F)cccn2c1SC(F)(F)F [Example 89]
> 6.12

I would be grateful if you could share the reported pIC50 for COc1ccc(C(N)=O)cc1NCC#Cc1nc2c(N[C@@H]3CCN(C)C[C@@H]3F)cccn2c1SC(F)(F)F [Example 138] .
> 6.12

One more compound: CNC(=O)c1cc(NCC#Cc2nc3c(N[C@@H]4CCN(C)C[C@@H]4F)cccn3c2SC(F)(F)F)c(OC)cc1F [Example 170]
> 6.12

Can you handle CNC(=O)c1cnc(NCC#Cc2nc3c(N[C@@H]4CCN(C)C[C@@H]4F)cccn3c2SC(F)(F)F)n1C [Example 161] next?
5.52 to 5.82

Likewise for COC[C@@H](O)CN1CCC(Nc2cccn3c(CC(F)(F)F)c(C#CCNc4ccc(S(C)(=O)=O)cc4OC)nc23)CC1 [Example 12] ?
5.52 to 5.82

Queued: COc1cc(S(C)(=O)=O)ccc1NCC#Cc1nc2c(N[C@@H]3C[C@H]4CC[C@H](N4)[C@@H]3F)cccn2c1SC(F)(F)F [Example 131]
> 6.12

One more compound: CNC(=O)c1ccc(NCC#Cc2nc3c(NC4CCN(C)CC4)cc(N)cn3c2CC(F)(F)F)c(OC)c1 [Example 40]
< 5.52

What do you have for CNC(=O)c1ccc(OC)c(NCC#Cc2nc3c(N[C@@H]4C[C@H]5CC[C@@H]([C@@H]4F)N5C)cccn3c2SC(F)(F)F)c1 [Example 199] ?
> 6.12

Now consider CNC(=O)c1ccc(NCC#Cc2cc3c(N[C@@H]4CCN(C)C[C@@H]4F)nccn3c2SC(F)(F)F)c(OC)c1 [Example 155] .
> 6.12

What do you have for CCOc1c(C#CCNc2ccc(C(=O)NC)cc2OC)nc2c(N[C@@H]3CCN(C)C[C@@H]3F)cccn12 [Example 17] ?
< 5.52

Input COc1cc(S(C)(=O)=O)ccc1NCC#Cc1nc2c(NC3CCOCC3)cccn2c1CC(F)(F)F [Example 3]
5.52 to 5.82

Another compound to check: COc1cc(S(C)(=O)=O)ccc1NCC#Cc1nc2c(NC3CCN(C(C)C)CC3)cccn2c1CC(F)(F)F [Example 9]
5.52 to 5.82

Query CNC(=O)c1ccc(NCC#Cc2nc3c(N[C@H]4C[C@@H]5CC[C@@H](N5)[C@H]4F)cccn3c2SC(F)(F)F)c(OC)c1 [Example 201] next
> 6.12

Do the same for CCNC(=O)c1ccc(NCC#Cc2nc3c(N[C@@H]4CCN(C)C[C@@H]4F)cccn3c2SC(F)(F)F)c(OC)c1 [Example 85] please
> 6.12
